Target: T1, hANGPTL4(26-406)-His (Homo sapiens, UniProt Q9BY76)
T1 construct: purchased R&D Systems
T1 sequence (Q9BY76 26-406): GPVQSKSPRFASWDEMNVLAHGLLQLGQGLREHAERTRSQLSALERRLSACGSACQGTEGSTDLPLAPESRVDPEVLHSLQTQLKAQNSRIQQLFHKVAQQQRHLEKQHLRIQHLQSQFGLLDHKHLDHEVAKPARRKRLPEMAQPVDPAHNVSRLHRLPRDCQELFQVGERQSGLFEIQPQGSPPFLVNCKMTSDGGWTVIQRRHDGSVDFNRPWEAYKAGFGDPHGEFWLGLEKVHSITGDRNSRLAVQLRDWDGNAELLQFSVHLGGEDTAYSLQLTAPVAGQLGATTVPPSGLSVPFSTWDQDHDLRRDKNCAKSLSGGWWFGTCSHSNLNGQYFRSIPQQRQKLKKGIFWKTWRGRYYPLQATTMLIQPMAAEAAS
Test: BIACORE, full mAb or Fab over amino-coupled hANGPTL4(26-406)-His
Assay type: binding
Details: pH 7.2, 25° C.
Measured kd, listed per entry for reference.
TEST_READOUT: kd (s⁻¹)

MOLECULE	QUANTITATIVE_READOUT
H1H284P: anti-hANGPTL4 antibody, hIgG1 isotype, HCVR/LCVR SEQ ID NOs 90/92 (antibody, V domains shown) VH: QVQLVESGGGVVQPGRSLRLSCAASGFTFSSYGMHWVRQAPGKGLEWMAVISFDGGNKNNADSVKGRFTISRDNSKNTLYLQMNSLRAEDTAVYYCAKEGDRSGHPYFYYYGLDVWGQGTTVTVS VL: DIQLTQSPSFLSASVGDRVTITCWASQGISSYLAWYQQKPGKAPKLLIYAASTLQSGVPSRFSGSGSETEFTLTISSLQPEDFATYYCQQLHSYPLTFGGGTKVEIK	8.85e-05
H1H268P Fab: Fab fragment of H1H268P prepared by papain digestion (antibody, V domains shown) VH: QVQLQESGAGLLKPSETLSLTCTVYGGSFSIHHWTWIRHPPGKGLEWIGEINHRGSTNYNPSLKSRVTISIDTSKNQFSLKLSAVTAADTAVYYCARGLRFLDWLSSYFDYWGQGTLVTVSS VL: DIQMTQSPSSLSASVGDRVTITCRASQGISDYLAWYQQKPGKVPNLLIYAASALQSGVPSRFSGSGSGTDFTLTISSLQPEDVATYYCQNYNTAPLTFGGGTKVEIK	0.0118
H1H284P Fab: Fab fragment of H1H284P prepared by papain digestion (antibody, V domains shown) VH: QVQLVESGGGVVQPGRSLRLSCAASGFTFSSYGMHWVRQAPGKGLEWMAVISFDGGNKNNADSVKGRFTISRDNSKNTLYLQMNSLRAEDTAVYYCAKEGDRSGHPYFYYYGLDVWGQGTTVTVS VL: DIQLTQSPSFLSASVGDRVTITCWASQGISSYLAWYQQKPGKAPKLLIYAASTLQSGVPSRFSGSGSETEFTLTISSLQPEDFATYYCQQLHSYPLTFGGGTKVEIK	0.000344

Cited source for all entries: patent US9120851B2
